- System: Plasmodium falciparum TM91C235
- experiment_summary: In vitro antimalarial [3H]-hypoxanthine incorporation assay, TM91C235
- Assay type: cell-based
- measurement_context: Plasmodium falciparum; P. falciparum TM91C235 (multiple drug resistant isolate), 72 hours exposure
measured_property: IC50
Give your result as the value with the unit written after it.

Fetch value of IC50 on Plasmodium falciparum TM91C235 for CCNC(=O)NCCN1C[C@H](C)C[C@@](C)(O)[C@H](O[C@@H]2O[C@H](C)C[C@H](N(C)C)[C@H]2O)[C@@H](C)[C@H](O[C@H]2C[C@@](C)(OC)[C@@H](O)[C@H](C)O2)[C@@H](C)C(=O)O[C@H](CC)[C@@](C)(O)[C@H](O)[C@H]1C [Example 158] .
0.103 µg/mL

Fetch value of IC50 on Plasmodium falciparum TM91C235 for CC[C@H]1OC(=O)[C@H](C)[C@@H](O[C@H]2C[C@@](C)(OC)[C@@H](O)[C@H](C)O2)[C@H](C)[C@@H](O[C@@H]2O[C@H](C)C[C@H](N(C)C)[C@H]2O)[C@](C)(O)C[C@@H](C)CN(CCCNC(=S)NC2CC2)[C@H](C)[C@@H](O)[C@]1(C)O [Example 113] .
0.866 µg/mL
